This collection of values is drawn from patent US20220160843A1.

Test system: P. aeruginosa
Assay: Time-kill assay of GN lysin activity
Assay type: cell-based, Pseudomonas aeruginosa
Run parameters: CAA/HuS; lysin 10 μg/mL; T = 0 7.8; buffer control 7.7
Measured parameter: Log10 CFU/mL T = l hr (Log10 CFU/mL)
Number only, in Log10 CFU/mL; omit the unit.

Prompt: Quick check: Log10 CFU/mL T = l hr of GN4: Native lysin, YP_002284361.1/Lysozyme, SEQ ID NO: 3; first disclosed in WO/2017/049233 (protein, Pseudomonas phage PAJU2) MRTSQRGIDLIKSFEGLRLSAYQDSVGVWTIGYGTTRGVTRYMTITVEQAERMLSNDIQRFEPELDRLAKVPLNQNQWDALMSFVYNLGAANLASSTLLKLLNKGDYQGAADQFPRWVNAGGKRLDGLVKRRAAERALFLEPLS ?
Completion: 6.0

Prompt: Quick check: Log10 CFU/mL T = l hr of GN147: Modified GN3, amino acid substitutions (R101D, R117H), SEQ ID NO: 5 (protein) MRTSQRGLSLIKSFEGLRLQAYQDSVGVWTIGYGTTRGVKAGMKISKDQAERMLLNDVQRFEPEVERLIKVPLNQDQWDALMSFTYNLGAANLESSTLRDLLNAGNYAAAAEQFPHWNKAGGQVLAGLTRRRAAERELFLGAA ?
Completion: 6.5

Prompt: Quick check: Log10 CFU/mL T = l hr of GN3: Native lysin, WP_012273008.1/Lysozyme, SEQ ID NO: 2 (protein, listed as Pseudomonas putida) MRTSQRGLSLIKSFEGLRLQAYQDSVGVWTIGYGTTRGVKAGMKISKDQAERMLLNDVQRFEPEVERLIKVPLNQDQWDALMSFTYNLGAANLESSTLRRLLNAGNYAAAAEQFPRWNKAGGQVLAGLTRRRAAERELFLGAA ?
Completion: 5.8

Prompt: Quick check: Log10 CFU/mL T = l hr of GN94: Modified GN37, N-terminal peptide KFFKFFKFFK with linker, SEQ ID NO: 14 (protein) KFFKFFKFFKAGAGAGAGAGAGAGAGASMTYTLSKRSLDNLKGVHPDLVAVVHRAIQLTPVDFAVIEGLRSVSRQKELVAAGASKTMNSRHLTGHAVDLAAYVNGIRWDWPLYDAIAVAVKAAAKELGVAIVWGGDWTTFKDGPHFELDRSKYR ?
Completion: 6.4

Prompt: Quick check: Log10 CFU/mL T = l hr of GN17: Native lysin, GenBank ACD38663.1, SEQ ID NO: 24 (protein, listed as Pseudomonas aeruginosa) MTLRYGDRSQEVRQLQRRLNTWAGANLYEDGHFGAATEDAVRAFQRSHGLVADGIAGPKTLAALGGADCSHLLQNADLVAAATRLGLPLATIYAVNQVESNGQGFLGNGKPAILFERHIMYRRLAAHDQVTADQLAAQFPALVNPRPGGYAGGTAEHQRLANARQIDDTAALESASWGAFQIMGFHWQRLGYISVQAFAEAMGRSESAQFEAFVRFIDTDPALHKALKARKWADFARLYNGPDYKRNLYDNKLARAYEQHANCAEASA ?
Completion: 6.4
